Each entry below carries its recorded TGI.
# System: IGROV1 ovarian
# procedure_details: NCI tumour cell line growth inhibition, 48 h
result_type: TGI

1) Oc1ccc2c3c1OC1C(=NN=C4CCC5(O)C6Cc7ccc(O)c8c7C5(CCN6CC5CC5)C4O8)CCC4(O)C(C2)N(CC2CC2)CCC314 (stereo unspecified)	> 100 µM
2) O=c1c2ccccc2c2c1c1c3ccccc3c(=O)c1c1c3ccccc3c(=O)c21	> 100 µM
3) Cn1c(=O)c2[nH]c(C3CC(=O)CC(c4nc5c([nH]4)c(=O)n(C)c(=O)n5C)N3)nc2n(C)c1=O (stereo unspecified)	> 100 µM
4) COc1ccc(N(C)c2nc(Cl)nc3ccn(C)c23)cc1	> 100 µM
5) O/N=C1/CCCCCC1NO (stereo unspecified)	> 100 µM
6) O=C(Nc1ccccc1)Nn1c(-c2cccs2)nc2ccc(I)cc2c1=O	71.7 µM
7) O=c1oc2cccnc2n1CCN1CCN(c2ccc(Oc3ccccc3)cc2)CC1	> 100 µM
8) COC(=O)c1oc2c(O)c(OC)c(Br)cc2c1C	91.6 µM
9) CC(C)=CCc1ccc(O)c(=O)cc1C(C)C	16.1 µM
10) S=P1(c2ccccc2)Nc2ccc(Cl)cc2N1 (stereo unspecified)	> 100 µM
11) COc1cc(C2CC(c3ccc(Nc4ccnc5cc(Cl)ccc45)cc3)=NN2C=O)cc(OC)c1OC (stereo unspecified)	> 100 µM

====

Each entry below carries its recorded TGI.
# Tested on: PC-3 prostate
# procedure_details: NCI tumour cell line growth inhibition, 48 h
result_type: TGI

1. COc1ccc(/C(=N\O)c2cc(OC)c(OC)c(OC)c2)c(OC)c1N	> 100 µM
2. O=C(Nc1cccnc1)c1cccc([N+](=O)[O-])c1	> 100 µM
3. CC1(C)O[C@H]2[C@@H]3N=C(c4ccccc4)O[C@@H]3C=C[C@H]2O1	> 100 µM
4. CO/N=C(\COc1ccc2c(c1)oc(=O)c1cc(OC)ccc12)c1cccc(OC)c1	> 100 µM
5. COCC(=O)OC1CCn2c1nc1c2C(=O)C(C)=C(NC(C)=O)C1=N (stereo not given)	9.01 µM
6. Cn1ccnc1C(=O)/C=C/c1ccc(C(=O)Nc2ccccc2O)cc1	4.8 µM
7. COc1cc(C(=O)/C=C/c2c(-c3ccc(F)cc3)nc3ncccn23)cc(OC)c1OC	> 100 µM
8. Cc1nn(-c2ccccc2)c2c1C(c1cc3ccccc3nc1Cl)NC(=S)N2 (stereo not given)	> 100 µM
9. CN1C(=O)c2cc([N+](=O)[O-])ccc2[C@H]2C(=O)c3cc4c(cc3[C@H]21)OCO4	63 µM
10. Oc1ccccc1Nc1nc2ccccc2c2occc12	22.8 µM

====

# Tested on: HOP-62 NSCLC
# procedure_details: NCI tumour cell line growth inhibition, 48 h
result_type: TGI (µM)

1) O=C1Nc2ccccc2/C1=C/c1cn(C(=O)c2c(Cl)cccc2Cl)c2ccccc12	40.4
2) CCCCCCCCCCCCCCCCOC(=O)c1c(C)[nH]c(/C=C2\N=C(c3ccc[nH]3)C=C2OC)c1C	12.8
3) CC(C)CCNC(=O)c1ccc(CNC(=O)/C=C/c2csc(-c3ccccc3)n2)cc1	37.4
4) CCCCCCCCCCCCCC(=O)OC(/C=C/C(C)C)C(O)C(O)C(OC)C(=O)NC1CCCCNC1=O (stereo not given)	6.8
5) Cc1nc2c(n1CCC(C)C)C(=O)c1ccccc1C2=O	50.7

====

# Tested on: HCT-116 colon
# procedure_details: NCI tumour cell line growth inhibition, 48 h
Each entry below carries its recorded GI50.
result_type: GI50

1. CCC[CH2][Sn]1([CH2]CCC)[O]C(=O)c2cccc(OC)c2[O]1	494 nM
2. COc1ccc(Cn2cnc3cc(C(=O)Nc4cccc5ccccc45)ccc32)c(OC)c1	37.4 nM
3. CC1CC(C)/C(=N/NC(N)=O)C(C(O)CC2CCC(=O)NC2=O)C1 (stereo not given)	3040 nM
4. O=c1[nH]ccc2nc(-c3ccc(CN4CCC(c5nc(-c6ccccn6)n[nH]5)CC4)cc3)c(-c3ccccc3)cc12	17200 nM
5. CCCCCCCCCCCCCCCCOC(=O)c1c(C)[nH]c(/C=C2\N=C(c3ccc[nH]3)C=C2OC)c1C	43 nM

====

# Tested on: TK-10 renal
# procedure_details: NCI tumour cell line growth inhibition, 48 h
result_type: GI50

1. COc1cc2c3c(n(CCCNC(=O)OCC4c5ccccc5-c5ccccc54)c(=O)c2cc1OC)-c1cc2c(cc1C3=O)OCO2	> 56.2 µM
2. COc1ccc(N(C)c2nc(Cl)nc3ccn(C)c23)cc1	91.3 µM
3. CC(=O)c1c(O)ccc2c(C)c(C(=O)O)oc12	> 100 µM
4. CC1(C)N=C(N)N=C(N)N1c1ccc(OCC(=O)N2CCOCC2)c(Cl)c1	> 100 µM
5. C/C1=C\CC[C@@]2(C)O[C@@H]2C[C@@H]2[C@H](C/C(C)=C/CC1)OC(=O)C21CCN=N1 (some centres not stated)	> 100 µM
6. CC1CC(C)/C(=N/NC(N)=O)C(C(O)CC2CCC(=O)NC2=O)C1 (configuration not stated)	1.64 µM
7. O=C(N/N=c1/ccoc2cccnc12)N1CCN(c2ncccn2)CC1	0.992 µM

====

# Test system: OVCAR-8 ovarian
# procedure_details: NCI tumour cell line growth inhibition, 48 h
result_type: log10(TGI) (log10 of the value in µM)

1. COc1cc(/C=C/C(=O)C(C(=O)/C=C/c2ccc(OC(=O)CCNc3nnc(C)s3)c(OC)c2)C(=O)CCNc2nnc(C)s2)ccc1OC(=O)CCNc1nnc(C)s1	1.22
2. O=C1NC(N/N=C/c2ccccc2)=N/C1=C\c1cccs1	1.47
3. Cn1cnc([N+](=O)[O-])c1Sc1nc2cccnc2s1	1.95
4. Cc1cc(NCCCCNc2ccnc3cc(Cl)ccc23)nc(Nc2ccc(C(=O)N3CCCC3)cc2)n1	1.05
5. O=c1[nH]cc(N(CCCl)CCCl)c(=O)[nH]1	2.30
6. O=C1/C(=C/c2ccc([N+](=O)[O-])o2)Oc2ccccc21	0.58
7. CCCCCCCCCCCCCC(=O)OC(/C=C/C(C)C)C(O)C(O)C(OC)C(=O)NC1CCCCNC1=O (stereo not given)	0.71
8. CCn1c(-c2ccccc2)nc2c1C(=O)c1ccccc1C2=O	1.54
9. O=C(N/N=c1/ccoc2cccnc12)N1CCN(c2ncccn2)CC1	0.82
10. Oc1ccc2ccccc2c1C(c1ccc(Cl)cc1)c1c(O)ccc2ccccc12	1.30

====

Each entry below carries its recorded TGI.
# Test system: A549 NSCLC
# procedure_details: NCI tumour cell line growth inhibition, 48 h
result_type: TGI

1. COc1cc(/C=C/C(=O)C(C(=O)/C=C/c2ccc(OC(=O)CCNc3nnc(C)s3)c(OC)c2)C(=O)CCNc2nnc(C)s2)ccc1OC(=O)CCNc1nnc(C)s1	7.87 µM
2. Cc1ccc([N+](=O)[O-])cc1NC(=O)C(=O)Cc1cc(=O)oc2cc(O)ccc12	> 100 µM
3. COc1cc(/C=C/c2sc3ccccc3[n+]2C)ccc1N(C)C	> 100 µM
4. O=C(CC(O)c1ccncc1)c1ccccc1 (stereo not given)	> 100 µM
5. O=c1oc2ccc(F)cc2c(=O)n1-c1ccc(Cl)cc1F	> 100 µM
6. CN(C)CS/C(N)=N\C(O)C(Cl)(Cl)Cl (stereo not given)	> 100 µM
7. Oc1ccc2c3c1OC1C(=NN=C4CCC5(O)C6Cc7ccc(O)c8c7C5(CCN6CC5CC5)C4O8)CCC4(O)C(C2)N(CC2CC2)CCC314 (stereo not given)	42.3 µM
8. Cc1cc(O)ccc1O	> 100 µM
9. CC(=O)Nc1ccc(S(=O)(=O)[N-]C2C(=O)c3ccccc3C(=O)C2[n+]2ccccc2)cc1 (stereo not given)	39.7 µM
10. Cn1c(=O)c2nc3nnc(C#N)c(N)n3c2n(C)c1=O	> 100 µM

====

# Tested on: TK-10 renal
# procedure_details: NCI tumour cell line growth inhibition, 48 h
result_type: TGI

1. COc1cc(-c2c3c([nH]c(=O)c2C#N)-c2cc([N+](=O)[O-])ccc2CCC3)cc(OC)c1OC	> 100 µM
2. CCCCCCCCCCCCCC(=O)OC(/C=C/C(C)C)C(O)C(O)C(OC)C(=O)NC1CCCCNC1=O (centres undefined)	11.6 µM
3. COc1cc(C(=O)N2CCN(c3ccccc3OC)CC2)c(N)cc1OCc1ccccc1	73.2 µM
4. CC1(C)O[C@H]2[C@@H]3N=C(c4ccccc4)O[C@@H]3C=C[C@H]2O1	> 100 µM
5. NC(N)=N/N=C(/c1ccccc1)c1ccc(Cl)cc1	> 100 µM
6. COc1cc(OC)c2cc(C(=O)O)c(=O)oc2c1	> 100 µM
7. Cn1c(=O)c2[nH]c(C3CC(=O)CC(c4nc5c([nH]4)c(=O)n(C)c(=O)n5C)N3)nc2n(C)c1=O (centres undefined)	> 100 µM
8. CC(C)CCNC(=O)c1ccc(CNC(=O)/C=C/c2csc(-c3ccccc3)n2)cc1	> 100 µM
9. O=c1[nH]c(=O)n(C2CC(O)C(CO)O2)cc1C#Cc1cc(C(F)(F)F)cc(C(F)(F)F)c1 (centres undefined)	> 100 µM
